Target: T1, mouse ACVR2A (mouse, UniProt P27038 20-135, limits assumed); note: test concentration or dose not given here
T1 construct: coated antigen of the initial ELISA
T1 sequence (P27038 20-135 limits assumed): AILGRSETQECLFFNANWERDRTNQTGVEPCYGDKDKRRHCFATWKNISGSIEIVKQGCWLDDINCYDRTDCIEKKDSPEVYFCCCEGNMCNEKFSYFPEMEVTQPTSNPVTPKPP
Experiment: ELISA
measuredMetric: optical density (OD)
Use OD as the unit, but write only the number.

Query string: Identify measured optical density corresponding to 375_A08 (antibody, V domains shown, Group III) VH: EVQLLESGGGLVQPGGSLRLSCAASGFTFSSYSMNWVRQAPGKGLEWVAGINYNGGYTGYADSVKGRFTISRDNSKNTLYLQMNSLRAEDTAVYYCARGANWHDTALDYWGQGTLVTVSS VL: DIQMTQSPSSLSASVGDRVTITCRASQSIVTYLNWYQQKPGKAPKLLIYAATSRASGVPSRFSGSGSGTDFTLTISSLQPEDFATYYCQQSYESPLTFGGGTKVEIK
Result string: 3.69

Query string: Provide optical density value for the following binder: 375_F08 (antibody, V domains shown, Group III) VH: EVQLLESGGGLVQPGGSLRLSCAASGFTFSSYGMNWVRQAPGKGLEWVSSINYNSGYKSYADSVKGRFTISRDNSKNTLYLQMNSLRAEDTAVYYCARGANWHDTHLDYWGQGTLVTVSS VL: DIQMTQSPSSLSASVGDRVTITCRASQSILSYLNWYQQKPGKAPKLLIYAATSRHSGVPSRFSGSGSGTDFTLTISSLQPEDFATYYCQQSYDNPLTFGGGTKVEIK
Result string: 3.58

Query string: Indicate the recorded optical density value for this binder: 375_A12 (antibody, V domains shown, Group III) VH: EVQLLESGGGLVQPGGSLRLSCAASGFTFSSYSMNWVRQAPGKGLEWVSGINYNSGYKSYADSVKGRFTISRDNSKNTLYLQMNSLRAEDTAVYYCARGANWHDTALDYWGQGTLVTVSS VL: DIQMTQSPSSLSASVGDRVTITCRASQSILSYLNWYQQKPGKAPKLVIYAVTSRASGVPSRFSGSGSGTDFTLTISSLQPEDFATYYCQQSYETPLTFGGGTKVEIK
Result string: 3.35
